Just for reference, paper PMC4232510 is where these values come from.

Biological target: rP2X4R P290A mutant (Rattus norvegicus, UniProt P51577, P290A)
Sequence (P51577 1-388 P290A): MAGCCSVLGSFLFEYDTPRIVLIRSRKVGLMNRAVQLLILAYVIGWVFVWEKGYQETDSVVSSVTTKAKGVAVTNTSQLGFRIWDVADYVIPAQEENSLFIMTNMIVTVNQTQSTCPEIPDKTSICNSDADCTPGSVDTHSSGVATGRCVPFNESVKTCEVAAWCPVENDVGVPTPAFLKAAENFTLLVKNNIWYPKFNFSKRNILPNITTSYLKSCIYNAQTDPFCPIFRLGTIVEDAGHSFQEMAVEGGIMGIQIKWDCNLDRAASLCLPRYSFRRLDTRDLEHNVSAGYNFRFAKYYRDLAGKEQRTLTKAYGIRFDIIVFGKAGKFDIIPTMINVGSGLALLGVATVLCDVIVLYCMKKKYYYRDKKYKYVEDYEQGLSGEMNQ
Assay: whole-cell patch clamp, HEK293T cells expressing mutant
Settings: naïve receptors, 2–5 s application
Result Type: EC50 (µM)
Form entry: value (µM) — number only.

# get_value(readout='EC50', item= Nc1ncnc2c1ncn2[C@@H]1O[C@H](COP(=O)(O)OP(=O)(O)OP(=O)(O)O)[C@@H](O)[C@H]1O )
8
